The measured values listed here are drawn from patent US7005505.

Biological target: T1, FLT-1 IgG (UniProt P17948 27-758)
T1 construct: Construct only cited from Park et al. 1994; also called FLT-IgG; FLT-1 receptor-IgG chimera; not shown: IgG part of the chimera (captured by anti-human IgG Fc)
T1 sequence (P17948 27-758): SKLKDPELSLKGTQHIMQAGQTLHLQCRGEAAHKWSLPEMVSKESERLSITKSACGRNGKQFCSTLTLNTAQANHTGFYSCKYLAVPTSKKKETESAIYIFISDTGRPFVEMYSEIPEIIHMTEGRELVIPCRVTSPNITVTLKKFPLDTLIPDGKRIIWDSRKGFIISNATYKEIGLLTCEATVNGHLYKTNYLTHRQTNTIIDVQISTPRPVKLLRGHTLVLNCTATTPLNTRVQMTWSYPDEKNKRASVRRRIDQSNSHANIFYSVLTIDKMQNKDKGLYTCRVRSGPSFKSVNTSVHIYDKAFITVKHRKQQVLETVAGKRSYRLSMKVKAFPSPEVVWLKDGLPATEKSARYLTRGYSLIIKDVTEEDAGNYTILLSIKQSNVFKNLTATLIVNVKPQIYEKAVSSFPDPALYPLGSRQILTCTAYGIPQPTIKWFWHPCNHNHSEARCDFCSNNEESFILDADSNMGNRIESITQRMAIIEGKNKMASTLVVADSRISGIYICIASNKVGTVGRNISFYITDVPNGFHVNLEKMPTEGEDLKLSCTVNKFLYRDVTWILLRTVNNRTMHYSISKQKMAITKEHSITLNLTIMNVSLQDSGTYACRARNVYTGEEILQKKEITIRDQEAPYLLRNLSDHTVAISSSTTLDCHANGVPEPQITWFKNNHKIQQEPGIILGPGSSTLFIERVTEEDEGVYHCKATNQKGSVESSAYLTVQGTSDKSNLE
Assay: competition with 125I-VEGF165 for FLT-1-IgG, radioligand plate assay, no heparin
Quantity Name: pIC50
// scale note: pIC50 = -log10(conc_M); give the bare number

Binder | pIC50
R105A VEGF (ligand, VEGF165 mutant from 293 cells, conditioned medium) APMAEGGGQNHHEVVKFMDVYQRSYCHPIETLVDIFQEYPDEIEYIFKPSCVPLMRCGGCCNDEGLECVPTEESNITMQIMRIKPHQGQHIGEMSFLQHNKCECAPKKDRARQENPCGPCSERRKHLFVQDPQTCKCSCKNTDSRCKARQLELNERTCRCDKPRR | 10.42
E64A VEGF (ligand, VEGF165 mutant from 293 cells, conditioned medium) APMAEGGGQNHHEVVKFMDVYQRSYCHPIETLVDIFQEYPDEIEYIFKPSCVPLMRCGGCCNDAGLECVPTEESNITMQIMRIKPHQGQHIGEMSFLQHNKCECRPKKDRARQENPCGPCSERRKHLFVQDPQTCKCSCKNTDSRCKARQLELNERTCRCDKPRR | 10.80

Moving on to another binder below.
KKDR(107-110)AAAA VEGF (ligand, VEGF165 mutant from 293 cells, conditioned medium; also called K107A, K108A, D109A, R110A) APMAEGGGQNHHEVVKFMDVYQRSYCHPIETLVDIFQEYPDEIEYIFKPSCVPLMRCGGCCNDEGLECVPTEESNITMQIMRIKPHQGQHIGEMSFLQHNKCECRPAAAAARQENPCGPCSERRKHLFVQDPQTCKCSCKNTDSRCKARQLELNERTCRCDKPRR has a reported pIC50 of 10.27
